MIC values by entry
Tested on: Aspergillus brasiliensis (DSM 1988/ATCC 16404)
assay_remarks: microbe, parasite or virus in culture
Type: cell-based
applied_conditions: 48 h, A. bras. (2d)
Don't forget the unit after the value.

Examples from the recorded data:
[
  {
    "compound": "CC[N+](CC)(CC)C/C=C/C[n+]1ccc(CCCc2cc[n+](C/C=C/C[n+]3ccc(CCCc4cc[n+](C/C=C/C[N+](CC)(CC)CC)cc4)cc3)cc2)cc1",
    "value": "12.5 µg/mL"
  },
  {
    "compound": "c1cc(-c2cc[n+](CCCC[n+]3ccc(-c4ccncc4)cc3)cc2)ccn1 [Comp. ex. 3, reference compound]",
    "value": "200 µg/mL"
  }
]

For reference, reported MIC for BrCCCC[n+]1ccc(-c2ccncc2)cc1 stands at 3.1 µg/mL

So for CCCCCCCCCCCC[N+](C)(C)CCCC[n+]1ccc(-c2ccncc2)cc1 , the logged MIC turned out to be 6.3 µg/mL
